# Tgt: T1, Human Scribble (SCRIB) PDZ2 domain (860-950) (human, UniProt Q14160 860-950)
# T1 sequence: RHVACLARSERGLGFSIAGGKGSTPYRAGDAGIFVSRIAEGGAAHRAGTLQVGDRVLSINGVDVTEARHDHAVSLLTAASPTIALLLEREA
# Assay Notes: ITC

Binder	Uom	Kd
KHFRETEV [HTLV-1 Tax1 PBM peptide (KHFRETEV, residues 346-353)]	µM	15.4

From: paper PMC10952772
